Biological target: ZmDRIK1-K217-P492 (Zea mays)
Construct: kinase domain, K217-P492
Sequence (C0P4K9 1-514): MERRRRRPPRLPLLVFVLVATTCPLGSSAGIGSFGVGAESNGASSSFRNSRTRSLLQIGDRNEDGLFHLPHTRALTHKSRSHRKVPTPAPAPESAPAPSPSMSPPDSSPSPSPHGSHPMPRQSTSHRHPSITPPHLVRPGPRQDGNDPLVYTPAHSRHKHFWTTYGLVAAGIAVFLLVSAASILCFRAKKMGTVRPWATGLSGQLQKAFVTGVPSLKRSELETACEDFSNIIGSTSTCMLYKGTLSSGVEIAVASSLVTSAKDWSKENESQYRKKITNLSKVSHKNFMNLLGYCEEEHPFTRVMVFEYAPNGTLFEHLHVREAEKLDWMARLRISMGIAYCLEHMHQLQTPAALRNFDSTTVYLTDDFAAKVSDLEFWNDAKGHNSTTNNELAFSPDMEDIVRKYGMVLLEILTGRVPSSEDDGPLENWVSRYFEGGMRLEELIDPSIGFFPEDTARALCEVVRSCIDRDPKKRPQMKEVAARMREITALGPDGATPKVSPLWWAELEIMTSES
Assay: biochemical
Conditions: read-out: dTm B, sheet ZmDRIK1-K217-P492;; DSF, Boltzmann fit, 0.1% DMSO
Rule: ΔTm at 10 µM below -0.6 °C gives y, anything at or above gives n.

Example entries begin here.
| compound | category |
| --- | --- |
| CNC(=O)c1c(F)cccc1Nc1nc(Nc2cc3c(ccn3C(=O)CN(C)C)cc2OC)nc2[nH]ccc12 [GSK1838705A] | n |
| CNCc1ccc(-c2cc(-c3nc(-c4ccc(S(=O)(=O)C(C)C)cc4)cnc3N)on2)cc1 | y |
| Cn1cc(-c2ccc3nnc(C(F)(F)c4ccc5ncccc5c4)n3n2)cn1 | y |

I wonder whether CCc1nc(-c2cccc(C)c2)c(-c2ccnc(NC(=O)c3ccccc3)c2)s1 has ΔTm at 10 µM below -0.6 °C. Can you tell?
y

I wonder whether O=C1Nc2ccc(I)cc2/C1=C/c1cc(Br)c(O)c(Br)c1 has ΔTm at 10 µM below -0.6 °C. Can you tell?
n

I wonder whether FC(F)c1nc2ccccc2n1-c1nc(N2CCOCC2)nc(N2CCOCC2)n1 has ΔTm at 10 µM below -0.6 °C. Can you tell?
y

I wonder whether CC1(COc2ccc3c(c2)ncn3-c2ccc3cccc(N4CCC(N)CC4)c3n2)COC1 has ΔTm at 10 µM below -0.6 °C. Can you tell?
n

I wonder whether CNC(=O)c1cc(COc2nnc(Nc3ccc(Cl)cc3)c3ccoc23)ccn1 has ΔTm at 10 µM below -0.6 °C. Can you tell?
y
